Where do these numbers come from? They come from the supplement of paper PMC12764529.

# method summary: folding stability dG unfold (combined trypsin and chymotrypsin); higher = more stable
Catalogue of folding stability dG unfold values
Provide only the numeric value, understood in kcal/mol.

1) SAGGMTVTVKVKPDEYVIVEIENPVLDSTLTYVVPFNSPMTVTLPLPPDYKVKKITVVSPKKVSKELLSAGG [r13_119_JUSTAS]
1.78
2) SAGGSAPEPVEFTLGHPDGVPYRVTLTRLPDTDLYLVTVEFPGPEVTFTGVAPLEVLENIPGLTPVSAGGSA [r15_622_TrMRF]
1.72
3) PKIVEILDAKRTPDGSLVIKIKIEPPEPNVKIKVIVKTPNSFKVYEIDPTKTTLEITIPGNVTNPKIEVFGS [r1_428_TrMRF]
2.52
4) SAGGGMTLTQVSSHQSPNGGVPTTLVTETLFYPETGTAVVLTKVRLPETGEVTTVASTVLPIPPPLLSAGGS [r8_384_JUSTAS]
-0.726
5) SAGGMKKTVTITITEELPTETGEYKTKTVTTTLTVTPPPPEVTEEEKLREKALKENPNVSPDDPKALLSAGG [r13_136_JUSTAS]
0.153

Prompt: Which folding stability dG unfold reading was recorded for the sequence SAGGSAGGSAGGMVTATVTEYQPGEGLLTVKPPDGSTITIAVPPSVSYEELKNTTIDLSLSAGGSAGGSAGG [r7_296_JUSTAS] ?
Completion: 0.714

Prompt: Query (sequence): SAGGSAKEWVWVISIKYRYPNGEPLAPIPIMIPPDDPEIDIDEIADEIARKHGLDEIEVNIHPIPVSAGGSA [r15_333_TrROS] ; field requested: folding stability dG unfold
Completion: 1.9

###

# method summary: folding stability dG unfold (combined trypsin and chymotrypsin); higher = more stable
Returns 1 (yes) if the recorded folding stability dG unfold is greater than or equal to 2 kcal/mol, and 0 (no) otherwise.

1. SAGSATFTRATTPLPEVTLSWEELEELVKDPNIDSISVHSPTADRTLPAPEGKITGPLAPDQTVTLVGSAGG [r19_152_JUSTAS]
0 (no)
2. SAGGSAGGSAGNISSLPPTPITGSSLKRFVVKRPDGTEEEVTLEITYYPETGKEIISTIKSAGGSAGGSAGG [r11_1024_JUSTAS]
0 (no)
3. SAGGSEEFELEFRVEAASPEEAEALAEEIRKRLEDLGLDVEVEAETLEPGAVVVRPRVRVDPETGRLDSAGG [r13_697_TrMRF]
0 (no)
4. SAGGSAGGEEAREAIEQELRARGINVTEIKVEEKKLTPDKTVVTFTVTARLPDSELTSTFTVVDSAGGSAGG [r6_533_JUSTAS]
0 (no)
5. SAGGSAGGSEEREYVEVEFEFLARLEDGSLLVTRVRLLLPAEPAELRPEVRSEVLPLAPGEELSAGGSAGGS [r12_811_TrMRF]
1 (yes)

Prompt: Is reported folding stability dG unfold greater than or equal to 2 kcal/mol here: SAGGSAMKVIRIRPDDPRVKELLKKLEDAGYEVRYDEETGELYVTLPDGKVLKFKSLEELKKAGFESAGGSA [r15_94_TrROS_Hall]
Completion: 0 (no)

Prompt: Threshold query (folding stability dG unfold >= 2 kcal/mol) on SAGGSAGGMPPDTYVTEVVTTTSNVLGGKDIFRTIVKTTKILPVIEHPAGDGFTLVPPDTPGLESAGGSAGG [r6_405_JUSTAS]
Completion: 0 (no)

Prompt: Is the recorded value of folding stability dG unfold equal to or greater than 2 kcal/mol for this sequence? SAGGSAGGSKTPVFYIPPSLKDPEKAIELLEEIRKKIPPGTKIAVIAPGGGIPELKKAGLITASAGGSAGGS [r12_992_TrMRF]
Completion: 0 (no)

Prompt: Hi team, for SAGGSAGGSAGGGVVTLPDLKGLSEEELKALAEEIAKKLGLENVPLKLEFGEDGNLTLVLSAGGSAGGSAGG [r7_810_JUSTAS] , is the recorded folding stability dG unfold at or above 2 kcal/mol?
Completion: 0 (no)

###

Items are presented alongside their recorded folding stability dG unfold.
# method summary: folding stability dG unfold (combined trypsin and chymotrypsin); higher = more stable
Write the answer as a number in kcal/mol, unit excluded.

# example entries with known answers
1. SAGGSMTMTVEIHYPDGTVETRTVPYAPDDPAAAIAAVKAEVEARGGEVLAVETRDGVVTVKALVPPSAGGS [r16_662_JUSTAS]
2.72
2. SAGGSAGGSAMPLGVTTSTSTSLLPSNSRLVTETITTPGTTSTTTTLLTPPPGEVLETTTTSSAGGSAGGSA [r18_459_JUSTAS]
0.526
3. SAMLTTLETTTTTSDSLTVTTSLSLLPDGSLVTTTTVIDTSGNVLSSTTTVEPGPPPVTPENIALMVRLSAG [r14_171_JUSTAS]
0.125
4. SANKNFYIIQIKWEIDGPDGRTLSFMIIVPRDDPDEFLKEAKDFIAEEFGYPIKKIEVDIHRIPPEDFPSAG [r14_104_TrROS]
3.01
5. SAGGSAGGSAGMETTDSVITYPDGSVVTVTTLPDGTTRVTTFYPESGLTEEEIVPAAELGSAGGSAGGSAGG [r11_1015_JUSTAS]
2.19
6. SAGGVEEIVEKLPEEAEEVEITSEPHPLPGSTLTKYTIKAKNSATGKTKTYEVTVLYDPEGNVLEVLLSAGG [r13_358_JUSTAS]
2.22
7. SAGGSAGGSGYTTTTSTSISLSPTSFTVTTTTTTTDPVTKTTTVTTTTTTVPLPPSLLSLVSSSAGGSAGGS [r12_885_JUSTAS]
2.5
8. SAGGITIVWQPGYFRIEFPGNGNTVPIPIPPDDPGRTLEEFADEFIDEMSERFGIPPPEDIKIEYYDSAGGS [r8_402_TrROS]
1.39
9. SNFYFTIEIERPDPNGEEKKIEITIPMERINQELQEEHGMESPQEAQEYFAKEIAEKFDENGYKVKIEPFSA [r9_868_TrROS]
-0.316
10. SAGGSAGGSAGGMTEYVPGEGKVLVTYPDGTTKVVPVDPATPEEFRAELEAAGVPEIKPLSAGGSAGGSAGG [r7_139_JUSTAS]
0.198

Prompt: Value lookup for folding stability dG unfold; key = SAGGSAGGSAGVITVTKDPKTGKYTVTIETPSGPATTVEVSSEEEAKELAKKLGYDIDALSAGGSAGGSAGG [r11_1049_JUSTAS]
Completion: 3.82

###

# method summary: folding stability dG unfold from chymotrypsin proteolysis; higher = more stable
Is folding stability dG unfold at least 10 kJ/mol? Then 1 (yes). If not, 0 (no).

Here's what some known entries look like.
1) SAGGPVVTTTTEYDPSTGKTYTVTTVPGSATQTTTYTLPDGTVLTTTTTVSPTTGGVTSTTPTTTPVPASAG [r5_587_JUSTAS]
0 (no)
2) SAGGSAGGSPVKDPDGKEVVPIQMTFIIRDPEMGKPVLITITFYIDPAPGGKIKDISIDIFPLSAGGSAGGS [r12_0_TrROS]
1 (yes)
3) SAGGSAGGSAGGPLKLKVKLKLEFEVKDENGKTSKVELEVELEVELPEIVLDKNGKLLLSAGGSAGGSAGGS [r10_168_TrROS_Hall]
1 (yes)
4) SAGGMPEVKYLEITITVEVPTEEEALEKLKEELKKLFPNAEIVSVEVEVEEEDGKLTVTVKITVKLPSAGGS [r8_120_TrROS_Hall]
1 (yes)
5) SAGGSAGGSAATKQITYTPPGSNRTYSFTATLTEEDPVTGRKLLELTLPDGTPITLPEGELGSAGGSAGGSA [r18_334_JUSTAS]
0 (no)
6) SAGMILPPNTVVTLSTTTTEELPLFTDGSGPRTTTTETVVTVEPVPVNPYPDPAVREKLLAEGKPLELLSAG [r5_624_JUSTAS]
0 (no)
7) SAGGSAGGSADGWVFLVGADVEVEPVPASLLNVPRSVPGEENPYVVKLKEVSFLLVPAKELSAGGSAGGSAG [r3_488_TrMRF]
0 (no)
8) SAGGSAGGSAGGKIIVVKDKETGKYRVIIVDKKTKKTIVVEVDPNTTLEEALKKAKELLKSAGGSAGGSAGG [r7_138_TrROS_Hall]
1 (yes)

Could you now look at the following sequence, please?
Prompt: State whether the measured folding stability dG unfold reaches 10 kJ/mol, counting equality as reaching it, for SAGGSAGGSAGGWNYIIFTIRYEFEYKDPNGKTMKHEVEITIIIPIPPIKRDEDGKYKLSAGGSAGGSAGGS [r10_168_TrROS]
Completion: 1 (yes)

###

# method summary: folding stability dG unfold from chymotrypsin proteolysis; higher = more stable
folding stability dG unfold values by entry
Note: unit kcal/mol is implicit; provide only the numeric part.

Past entries and their recorded results:
1. SAVELPPDASITAVTVDPSGSRTVEVEVKTTTAYVYDPATGTTTTVPPGVRTVVTLPADVPVTVSFTSPSAG [r14_385_JUSTAS]
0.484
2. MPNLKPALLVIPMKVESIEEAEEKVLAFAEELAEAFPNIKKIEVEILEIDEENGIVIAKITVEAEDSALDAS [r1_52_TrMRF]
2.34
3. SAGGSAGGSAGDNFKIKIESFNIMRLPDGYVMISIKIEITVGDKPVEITIMIIIPPGAPISAGGSAGGSAGG [r17_352_TrROS]
5.74
4. SAGGSAGGSAGGTVTFFEENEFVIDVPDPLTGRPIRIEVPGDPNKPEEIEARAEELRLSSAGGSAGGSAGGS [r10_379_JUSTAS]
-0.157
5. SAGGSAGGKIDLKDLKIVKIETVKNENGETFYRVVIEVDGKKIVLTVPENMSLEELLKKLKELSSAGGSAGG [r6_232_TrROS_Hall]
4.22

Prompt: Recorded folding stability dG unfold of SAGGSSIKIPNPNGYEIEIEVTPDRAKIKWRMPGKEQEQEFPPGEDVTIRFPDGMPLTIKIPPPGESAGGSA [r2_57_TrROS] , please.
Completion: 0.154

Prompt: Look up folding stability dG unfold: SAGGMTTTVTVTEDPATGTLTVPITIPRLDAEGNPTTEVLTVTLPASPEAEAAIAALAAALGIPAAASAGGS [r8_381_JUSTAS]
Completion: 0.943
